For each entry below, report its EC50 value.
# TARGET: human GPR40 receptor (Homo sapiens, UniProt O14842)
# Sequence (O14842 whole entry): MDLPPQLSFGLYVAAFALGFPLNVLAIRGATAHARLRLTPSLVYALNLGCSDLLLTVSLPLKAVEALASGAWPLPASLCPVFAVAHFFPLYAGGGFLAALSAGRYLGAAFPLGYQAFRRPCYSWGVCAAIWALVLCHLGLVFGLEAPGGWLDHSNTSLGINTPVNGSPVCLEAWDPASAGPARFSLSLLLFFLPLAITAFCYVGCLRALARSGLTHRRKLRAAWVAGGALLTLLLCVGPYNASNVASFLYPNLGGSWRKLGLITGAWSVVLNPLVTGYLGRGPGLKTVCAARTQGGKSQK
# TEST: IP1 accumulation measurements using the IPOne assay system in 1321N1 cells stably expressing human GPR40 receptor
# RUN PARAMETERS: IP1 accumulation (HTRF), 1321N1 cells stably expressing human GPR40, 1 hour stimulation at 37° C.
One number for each entry, in nM.

Record excerpt, results attached:
Cc1cc(-c2nc(C)n(C)n2)cc(C)c1-c1ccc(F)c2c1CC[C@H]2Oc1ccc([C@H]2C[C@@H]2C(=O)O)cc1 [Example 42] = 1
O=C(O)C1CC1c1ccc(OC2CCc3c2ccc(C(F)(F)F)c3-c2ccc(OCC3(O)CCOCC3)cc2)cc1 (stereo not shown) [Example 63] = 7
Cc1c(C#N)cccc1-c1ccc(F)c2c1CC[C@H]2Oc1ccc([C@H]2C[C@@H]2C(=O)O)cc1 [Example 54] = 5

# ---- query compound ----
Q) I'm curious: which EC50 was measured for Cc1cccc(C)c1-c1ccc(F)c2c1CC[C@H]2Oc1ccc(C2CC2C(=O)O)cc1 (stereo in doubt) [Example 33] tested on human GPR40 receptor (Homo sapiens, UniProt O14842)?
A) 2

---

# TARGET: human GPR40 receptor (Homo sapiens, UniProt O14842)
# TEST: IP1 accumulation measurements using the IPOne assay system in 1321N1 cells stably expressing human GPR40 receptor
# RUN PARAMETERS: IP1 accumulation (HTRF), 1321N1 cells stably expressing human GPR40, 1 hour stimulation at 37° C.
READOUT TYPE: pEC50
Numbers only, as −log10 of the molar value.

O=C(O)[C@H]1C[C@@H]1c1ccc(O[C@@H]2CCc3c(-c4ccccc4-c4cnco4)ccc(F)c32)cc1 = 7.54
Cn1ccc2c(-c3ccc(F)c4c3CC[C@H]4Oc3ccc([C@H]4C[C@@H]4C(=O)O)cc3)cccc21 = 7.89
O=C(O)[C@H]1C[C@@H]1c1ccc(O[C@@H]2CCc3cccc(F)c32)cc1 = 6.52
Cc1nn(C)cc1-c1ccc(F)c2c1CC[C@H]2Oc1ccc([C@H]2C[C@@H]2C(=O)O)cc1 = 6.65
O=C(O)[C@H]1C[C@@H]1c1ccc(O[C@@H]2CCc3c(-c4ccnc5ccccc45)ccc(F)c32)cc1 = 7.96
Cc1cc(O[C@@H]2CCOC2)cc(C)c1-c1ccc(F)c2c1CC[C@H]2Oc1ccc([C@H]2C[C@@H]2C(=O)O)cc1 = 7.89
O=C(O)C1CC1c1ccc(O[C@@H]2CCc3c2cccc3C(F)(F)F)cc1F (stereo in doubt) = 7.07
Cc1cc(OC2CCOCC2)cc(C)c1-c1c(C#N)ccc2c1CC[C@H]2Oc1ccc([C@H]2C[C@@H]2C(=O)O)cc1 = 7.40
Cc1cc(O[C@@H]2CCN(S(C)(=O)=O)C2)cc(C)c1-c1c(C#N)ccc2c1CC[C@H]2Oc1ccc([C@H]2C[C@@H]2C(=O)O)cc1 = 7.49
O=C(O)C1CC1c1ccc(O[C@@H]2CCc3c(OC(F)(F)F)cccc32)cc1 (stereo in doubt) = 7.74

Give pEC50 for each listed item.
1. Cc1cc(OCCN2CCCS2(=O)=O)cc(C)c1-c1ccc(F)c2c1CC[C@H]2Oc1ccc([C@H]2C[C@@H]2C(=O)O)cc1
2. Cc1cc(-c2nc(C)n(CC(C)(C)O)n2)cc(C)c1-c1ccc(F)c2c1CC[C@H]2Oc1ccc([C@H]2C[C@@H]2C(=O)O)cc1
3. Cc1cc(OCCC(C)(C)O)cc(C)c1-c1ccc(F)c2c1CC[C@H]2Oc1ccc([C@H]2C[C@@H]2C(=O)O)cc1

A)
1. 7.92
2. 8.70
3. 8.40

Reference source for all entries: patent US8633182B2
